Attribute Measured: melting point (°C)

compound="CCOC(c1cccc2cccnc12)n1c(NC2CCN(C(CN)C(C)C)CC2)nc2ccccc21 (racemic)" attribute_measured="melting point" experimental_result=202
compound="CC(C)C(N)CN1CCC(Nc2nc3ccccc3n2CC2CCc3ccccc3N2)CC1.Cl.Cl.Cl.Cl.O (racemic) (hydrate or solvate)" attribute_measured="melting point" experimental_result=230

(1) CC(C)C(N)CN1CCC(Nc2nc3ccccc3n2Cc2ccc3ccccc3n2)CC1 (racemic)
(2) NCCN1CCC(Nc2nc3ccccc3n2Cc2ccnc3ccccc23)CC1
*Q* Could you tell me which of 1 and 2 has the lower melting point reading? API: response body contains the label of the selected item.
*A* 1

Origin of the recorded values: patent US7407969B2
